Taken from patent US20260250381A1.

Target: T1, human TREM2 (human) (UniProt Q9NZC2)
T1 sequence (looked up): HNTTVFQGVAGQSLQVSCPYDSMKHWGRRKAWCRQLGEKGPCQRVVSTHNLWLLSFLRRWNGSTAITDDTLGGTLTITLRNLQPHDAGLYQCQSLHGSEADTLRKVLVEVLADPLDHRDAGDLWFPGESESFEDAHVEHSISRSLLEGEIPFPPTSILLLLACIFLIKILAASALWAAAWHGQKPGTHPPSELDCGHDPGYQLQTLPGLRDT
Assay: 1st screen, 10 nM Ab
Hi! Could you tag entries with Binding Signal (fold over 6E7 parental antibody) below 3 fold as fulfilled, and those at or above as not fulfilled? Much appreciated.

Worked examples, 4 binders total:
binder	category
6E7 variant V36 (antibody, V domains shown) VH: EVQLVQSGAEVKKPGESLKISCKGSGYSFTSYWLAWVRQMPGKGLEWMGIIYPGDSDTRYSPSFQGQVTISADKSISTAYLQWSSLKASDTAMYFCARSRTFYYDSSDYFDYWGQGTLVTVSS VL: DIQMTQSPSSVSASVGDRVTITCRASQGISSWLAWYQQKPGKAPKLLIYAASSRQNGVPSRFSGSGSGTDFTLTISSLQPEDFATYFCQQADSYPRTFGQGTKLEIK	not fulfilled
6E7 variant V27 (antibody, V domains shown) VH: EVQLVQSGAEVKKPGESLKISCKGSGYSFTSYWIAWVRQMPGKGLEWMGIIYPGDSDTRYAPSFQGQVTISADKSISTAYLQWSSLKASDTAMYFCVRSRTFYYDSSDYFDYWGQGTLVTVSS VL: DIQMTQSPSSVSASVGDRVTITCRASQGISSWLAWYQQKPGKAPKLLIYAASSLQRGVPSRFSGSGSGTDFTLTISSLQPEDFATYFCQQADSFPRTFGQGTKLEIK	not fulfilled
6E7 variant V84 (antibody, V domains shown) VH: EVQLVQSGAEVKKPGESLKISCKGSGYGFTSYWIAWVRQMPGKGLEWMGIIYPGDSDTRYSPSFQGQVTISADKSISTAYLQWSSLKASDTAMYFCARQRTFYYDSSDYSDYWGQGTLVTVSS VL: DIQMTQSPSSVSASVGDRVTITCRASQGISSWLAWYQQKPGKAPKLLIYGASSLQNGVPSRFSGSGSGTDFTLTISSLQPEDFATYFCQQADSFPRTFGQGTKLEIK	fulfilled
6E7 variant V87 (antibody, V domains shown) VH: EVQLVQSGAEVKKPGESLKISCKGSGYSFRSYWIAWVRQMPGKGLEWMGIIYPGDSDVRYSPDFQGQVTISADKSISTAYLQWSSLKASDTAMYFCARSRTFYYDSSDYFDYWGQGTLVTVSS VL: DIQMTQSPSSVSASVGDRVTITCRASQGISSWLAWYQQKPGKAPKLLIYAASSLQWGVPSRFSGSGSGTDFTLTISSLQPEDFATYFCQQADSFPRTFGQGTKLEIK	not fulfilled

Query: Please state whether Binding Signal (fold over 6E7 parental antibody) is below 3 fold for 6E7 variant V64 (antibody, V domains shown) VH: EVQLVQSGAEVKKPGESLKISCKGSGYSFQSYWIAWVRQMPGKGLEWMGIIYPGDSDTRYSPSFQGQVTISADKSISTAYLQWSSLKASDTAMYFCARGRTFYYDSSDYFDYWGQGTLVTVSS VL: DIQMTQSPSSVSASVGDRVTITCRASQGISSWLAWYQQKPGKAPKLLIYAASSLANGVPSRFSGSGSGTDFTLTISSLQPEDFATYFCQQADSYPRTFGQGTKLEIK
Result: not fulfilled
